Reference for the values: PubChem BioAssay AID2060614

# Tested on: 598228-144-R-J1-PDC complex spheroids, viability;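 further: spheroids exposed to compounds for seven days before readout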
# Assay procedure: Anticancer human tumor 598228-144-R-J1-PDC patient-derived serous endometrial adenocarcinoma cell line growth inhibition [CLK]
# Particulars: second compound 10 µM; first compound 1 µM; stronger effect = lower value
Category scheme (viability, T/C): bottom bin = under 1%, middle bin = from 1% up to 60%, top bin = 60% and over

>>> classification("C=C(F)C(=O)N1CCN(c2nc(OCC3CCCN3C)nc3c2CCN(c2cccc4cccc(Cl)c24)C3)CC1CC#N (stereo not given) + CN1CCN(c2cc(C(=O)Nc3cc4cc(-c5cnn(C)c5)ccc4cn3)ccn2)CC1")
"bottom bin"

Determine which band this compound sits in: COc1cccc2c1C(=O)c1c(O)c3c(c(O)c1C2=O)CC(O)(C(=O)CO)CC3OC1CC(N)C(O)C(C)O1 (stereo not given) + CN1CCN(c2cc(C(=O)Nc3cc4cc(-c5cnn(C)c5)ccc4cn3)ccn2)CC1
bottom bin

Determine which band this compound sits in: CC1COCCN1c1cc(C2(S(C)(=N)=O)CC2)nc(-c2ccnc3[nH]ccc23)n1 (stereo not given) + CNC(=O)c1ccc(Nc2nc(OC3CCCC3)c3c(-c4ccc5nc(C)oc5c4)c[nH]c3n2)c(OC)c1
top bin
